- System: NCI-H522 lung
- test protocol: NCI tumour cell line growth inhibition, 48 h

# compound, TGI
rows = [
    ("N#Cc1ncc(/N=C/c2ccc(N(CCCl)CCCl)cc2)s1", "> 100 µM"),
    ("Cc1ccc2[nH]c(C(=O)NN3C(=O)CSC34CCCCC4C)c(-c3ccccc3)c2c1 (stereo unspecified)", "27.9 µM"),
    ("COc1cc2c(cc1OC)-c1[nH]c3ccc(C#N)cc3c1CC(=O)N2", "> 100 µM"),
    ("Cc1ccc2c(c1)C1(C)OC(CC(N)C1O)O2 (stereo unspecified)", "> 100 µM"),
    ("Nc1ncnc2c1ccn2C1OC2COP(=O)(O)OC2C1O (stereo unspecified)", "1.07 µM"),
    ("COc1ccc(C2c3cc4c(cc3C(O)C3CCC(=O)N23)OCO4)cc1 (stereo unspecified)", "> 100 µM"),
]
